Tested on: SB.msgc-1
Assay: area under the dose-response curve of % viability (trapezoidal, 11 doses) (% viability x log10 concentration); higher = less cytotoxic
Conditions: SB.msgc-1 (sporadic gastric cancer)
Structures can show the parent of a compound that is named as a salt.

molecule	target-entity	area under the dose-response curve
CCC(C)(Oc1ccc(C2(c3ccc(OC(C)(CC)C(=O)O)cc3)CCCCC2)cc1)C(=O)O (stereo unspecified) [Clinofibrate] (top concentration 46.0829 µM)	SB.msgc-1	356
OC1=CC=C(C=C1)\C2=C\OC3=C(C(=CC(=C3)O)O)C2=O [Genistein] (top concentration 46.0829 µM)	SB.msgc-1	522
Clc1ccccc1C(c1ccccc1)(c1ccccc1)n1cccn1 [TRAM-34] (top concentration 46.0829 µM)	SB.msgc-1	441
C=CC(=O)N1CCC[C@@H](n2nc(-c3ccc(Oc4ccccc4)cc3)c3c(N)ncnc32)C1 (top concentration 46.0829 µM)	SB.msgc-1	327
Nc1ncnc2c1c(-c1cccc(OCc3ccccc3)c1)cn2C1CC(CN2CCC2)C1 (stereo unspecified) [NVP-AEW541] (top concentration 46.0829 µM)	SB.msgc-1	484
NNc1nncc2ccccc12 [Hydralazine hydrochloride] (top concentration 46.0829 µM)	SB.msgc-1	543
